Biological target: Full-length human BclXL (residues 1-233) (human, UniProt Q07817-1 1-233)
Sequence (Q07817 whole entry, the tested form may be a part): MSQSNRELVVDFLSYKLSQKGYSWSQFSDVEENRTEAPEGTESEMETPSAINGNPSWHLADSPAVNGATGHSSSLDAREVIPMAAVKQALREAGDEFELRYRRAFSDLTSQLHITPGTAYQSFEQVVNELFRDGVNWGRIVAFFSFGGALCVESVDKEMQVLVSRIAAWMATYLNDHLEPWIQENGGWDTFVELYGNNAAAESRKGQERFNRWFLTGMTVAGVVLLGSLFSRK
Test: ITC
pKd: −log10 of the molar value.
Recorded Metric: pKd

[
  {
    "Binder": "DIIRNIARHLAQVGDSMDRS [Bid_BH3 peptide (20-mer spanning residues 81-100, the BH3 domain within human Bid)]",
    "Recorded Metric": "pKd",
    "Result Number": 4.98
  }
]
